Reference source: patent US20210290648A1

# Test system: PA 259
# test.description: Checkerboard combination study / MIC
# Format: cell-based, Pseudomonas aeruginosa
# protocol.conditions: antibiotic + compound 2
readout.kind: FICI

Solved entries:
CO/N=C(\C(=O)N[C@@H]1C(=O)N2C(C(=O)O)=C(COC(C)=O)CS[C@H]12)c1csc(N)n1 [Cefotaxime] : <0.31
C[C@H]1[C@H](NC(=O)/C(=N\OC(C)(C)C(=O)O)c2csc(N)n2)C(=O)N1S(=O)(=O)O [Aztreonam] : <0.19
C[C@@H](O)[C@H]1C(=O)N2C(C(=O)O)=C(S[C@@H]3CN[C@H](C(=O)N(C)C)C3)[C@H](C)[C@H]12 [Meropenem] : <0.31
CC(C)(O/N=C(\C(=O)N[C@@H]1C(=O)N2C(C(=O)[O-])=C(C[n+]3ccccc3)CS[C@H]12)c1csc(N)n1)C(=O)O [Ceftazidime] : <0.19

Let's switch to this molecule now.
Which measured FICI belongs to CCN1CCN(C(=O)N[C@@H](C(=O)N[C@@H]2C(=O)N3[C@@H]2SC(C)(C)[C@@H]3C(=O)O)c2ccccc2)C(=O)C1=O [Piperacillin] , tested on PA 259?
<0.50

* * *

Overview of recorded MIC of Antibiotics in the presence of ≤10 μM of 1 for various compounds
# Tested on: WT P. aeruginosa PAO1
# test.description: Checkerboard combination study / MIC
# Format: cell-based, Pseudomonas aeruginosa
# protocol.conditions: antibiotic + compound 1 ≤10 μM; WT PAO1
Use µg/mL as the unit, but write only the number.

CCN1CCN(C(=O)N[C@@H](C(=O)N[C@@H]2C(=O)N3[C@@H]2SC(C)(C)[C@@H]3C(=O)O)c2ccccc2)C(=O)C1=O [Piperacillin] : 2
CN(C)c1ccc(O)c2c1C[C@H]1C[C@H]3[C@H](N(C)C)C(O)=C(C(N)=O)C(=O)[C@@]3(O)C(O)=C1C2=O [Minocycline] : 2
CO[C@@H]1[C@@H](OC(N)=O)[C@@H](O)[C@H](Oc2ccc3c(O)c(NC(=O)c4ccc(O)c(CC=C(C)C)c4)c(=O)oc3c2C)OC1(C)C [Novobiocin] : 64
NC[C@H]1O[C@H](O[C@H]2[C@H](O)[C@@H](O[C@H]3O[C@H](CO)[C@@H](O)[C@H](N)[C@H]3O)[C@H](N)C[C@@H]2N)[C@H](N)C[C@@H]1O [Tobramycin] : 1
C[C@H]1[C@H](NC(=O)/C(=N\OC(C)(C)C(=O)O)c2csc(N)n2)C(=O)N1S(=O)(=O)O [Aztreonam] : 0.5

Recorded MIC of Antibiotics in the presence of ≤10 μM of 1 of O=C(N[C@H](CO)[C@H](O)c1ccc([N+](=O)[O-])cc1)C(Cl)Cl [Chloramphenicol] , please.
8

Proceed to COc1c(N2C[C@@H]3CCCN[C@@H]3C2)c(F)cc2c(=O)c(C(=O)O)cn(C3CC3)c12 [Moxifloxacin]
1

Proceed to C[C@@H](O)[C@H]1C(=O)N2C(C(=O)O)=C(S[C@@H]3CN[C@H](CNS(N)(=O)=O)C3)[C@H](C)[C@H]12 [Doripenem]
0.5

* * *

# Test system: PA 100036
# test.description: Checkerboard combination study / MIC
# Format: cell-based, Pseudomonas aeruginosa
# protocol.conditions: antibiotic alone
One threshold, 20 µg/mL, splits the recorded MICAntibiotic values: lower ones are 1, equal or higher ones are -1.

CCN1CCN(C(=O)N[C@@H](C(=O)N[C@@H]2C(=O)N3[C@@H]2SC(C)(C)[C@@H]3C(=O)O)c2ccccc2)C(=O)C1=O : -1

Is MICAntibiotic of C[C@@H](O)[C@H]1C(=O)N2C(C(=O)O)=C(S[C@@H]3CN[C@H](C(=O)N(C)C)C3)[C@H](C)[C@H]12 strictly below 20 µg/mL?
1

Proceed to CO/N=C(\C(=O)N[C@@H]1C(=O)N2C(C(=O)O)=C(COC(C)=O)CS[C@H]12)c1csc(N)n1
-1

Proceed to CC(C)(O/N=C(\C(=O)N[C@@H]1C(=O)N2C(C(=O)[O-])=C(C[n+]3ccccc3)CS[C@H]12)c1csc(N)n1)C(=O)O
1

Proceed to C[C@@H](O)[C@H]1C(=O)N2C(C(=O)O)=C(S[C@@H]3CN[C@H](CNS(N)(=O)=O)C3)[C@H](C)[C@H]12
1

Proceed to C[C@H]1[C@H](NC(=O)/C(=N\OC(C)(C)C(=O)O)c2csc(N)n2)C(=O)N1S(=O)(=O)O
1
